target: KRAS 4B G12C protein (Homo sapiens, UniProt P01116, G12C); construct: This protein contained 188 amino acids in total, including an N-terminal 6-Histidine tag; made in house; host or cells: E. coli BL21; assay: In vitro covalent adduct formation (CAF) assay by LC-MS; type: binding; details: 10 minutes; compound 10 μM, protein 5 μM, 22° C.; percentage of protein bound by the compound
quantity name: CAF (10 minutes/60 minutes) at 10 micromolar: 10 minutes (%)

Reference set (5 entries):
C=CC(=O)N1CCN(c2nc(OC[C@@H]3CCCN3C)nc3c2CN(Cc2c(O)cccc2F)C3)C[C@@H]1CC#N ... 96
C=C(F)C(=O)N1CCN(c2nc(OC[C@@H]3CCCN3C)nc3c2CN(Cc2c(Cl)ccc(O)c2Cl)C3)C[C@@H]1CC#N ... 76
C=CC(=O)N1CCN(c2nc(OC[C@@H]3CCCN3C)nc3c2CN(Cc2cc(F)cc(F)c2)C3)C[C@@H]1CC#N ... 28
C=CC(=O)N1CCN(c2nc(OC[C@@H]3CCCN3C)nc3c2CN(C2CCc4ccccc42)C3)C[C@@H]1CCC(N)=O (some centres unmarked) ... 0
C=CC(=O)N1CCN(c2nc(OC[C@@H]3CCCN3C)nc3c2CN(Cc2ccccc2)C3)C[C@@H]1CC#N ... 27

(I) C=CC(=O)N1CCN(c2nc(OC[C@@H]3CCCN3C)nc3c2CN(Cc2c(Cl)cccc2OC(F)F)C3)[C@@H](C)C1
(II) C=CC(=O)N1CCN(c2nc(OC[C@@H]3CCCN3C)nc3c2CN(Cc2cc(O)ccc2Cl)C3)C2COCC21 (some centres unmarked)
Between I and II , which one shows the smaller CAF (10 minutes/60 minutes) at 10 micromolar: 10 minutes number? Refer to your chosen entry by its label in the reply.
I
(I: 0%, II: 41%)

* * *

molecular target: KRAS 4B G12C protein (Homo sapiens, UniProt P01116, G12C); construct: This protein contained 188 amino acids in total, including an N-terminal 6-Histidine tag; made in house; host or cells: E. coli BL21; experiment: In vitro covalent adduct formation (CAF) assay by LC-MS; type: binding; settings: 60 minutes; compound 10 μM, protein 5 μM, 22° C.; percentage of protein bound by the compound
quantity name: CAF (10 minutes/60 minutes) at 10 micromolar: 60 minutes (%)

Reference set (5 entries):
C=C(F)C(=O)N1CCN(c2nc(OC[C@@H]3CCCN3C)nc3c2CN(Cc2c(Cl)ccc4ccccc24)C3)C[C@@H]1CC#N [1-254] ... 73
C=CC(=O)N1CCN(c2nc(OC[C@@H]3CCCN3C)nc3c2CN(Cc2cc(OC)ccc2C)C3)[C@@H](C)C1 [1-2] ... 4
C=CC(=O)N1CCN(c2nc(OC[C@@H]3CCCN3C)nc3c2CN(Cc2c(O)cccc2F)C3)[C@@H](C)C1 [1-47] ... 43
C=CC(=O)N1CCN(c2nc(OC[C@@H]3CCCN3C)nc3c2CN(Cc2cc(Cl)ccc2F)C3)C[C@@H]1CC#N [1-49] ... 97
C=CC(=O)N1CCN(c2nc(OC[C@@H]3CC(F)(F)CN3C)nc3c2CN(C2CCc4ccccc42)C3)C[C@@H]1CC#N (stereo partly drawn) [1-133] ... 90

(1) C=CC(=O)N1CCN(c2nc(OC[C@@H]3CCCN3C)nc3c2CN(Cc2ccc(F)cc2C(C)C)C3)C[C@@H]1CC#N [1-196]
(2) C=CC(=O)N1CCN(c2nc(OC[C@@H]3CCCN3C)nc3c2CN(Cc2cc(F)ccc2C)C3)[C@@H](C)C1 [1-20]
(3) C=CC(=O)N1CCN(c2nc(OC[C@@H]3CCCN3C)nc3c2CN(C2CCc4ccccc42)C3)C[C@@H]1CCO (stereo partly drawn) [1-101]
(4) C#CC[C@H]1CN(c2nc(OC[C@@H]3CCCN3C)nc3c2CN(C2CCc4ccccc42)C3)CCN1C(=O)C=C (stereo partly drawn) [1-144]
Rank items: key CAF (10 minutes/60 minutes) at 10 micromolar: 60 minutes, increasing. // respond by listing labels in the order requested
3, 2, 4, 1

(I) C=CC(=O)N1CCN(c2nc(OC[C@@H]3CCCN3C)nc3c2CN(C(C)c2ccccc2Cl)C3)C[C@@H]1CC#N (stereo partly drawn) [1-120]
(II) C=CC(=O)N1CCN(c2nc(OCC3CC3)nc3c2CN(C2CCc4ccccc42)C3)C[C@@H]1CC#N (stereo partly drawn) [1-142]
Between I and II , which one shows the smaller CAF (10 minutes/60 minutes) at 10 micromolar: 60 minutes number? Refer to your chosen entry by its label in the reply.
II

(I) C=CC(=O)N1CCN(c2nc(OC[C@@H]3CCCN3C(C)(C)C)nc3c2CN(C2CCc4ccccc42)C3)C[C@@H]1CC#N (stereo partly drawn) [1-202]
(II) C=CC(=O)N1CCN(c2nc(Oc3cccnc3C3CC3)nc3c2CN(C2CCc4ccccc42)C3)C[C@@H]1CC#N (stereo partly drawn) [1-173]
Larger number for CAF (10 minutes/60 minutes) at 10 micromolar: 60 minutes: I , or II ? Refer to your chosen entry by its label in the reply.
I

// data source = patent US20210292330A1
